# credit: patent US9062074B2

Assay: Solubility assessment (solvent added in 10 volume aliquots)
Format: physicochemical
Details: ethanol, organic solvent or mixture, thermodynamic from solid, Ethanol, 20 vols; read-out: Solubility assessment observation
observable: solubility

Recorded solubility (compound "C1=C2COC/C=C/COCc3cc(ccc3OCCN3CCCC3)Nc3nccc(n3)C(=C1)O2" ): < 50 mg/mL

---

Experiment: Solubility assessment (solvent added in 10 volume aliquots)
Assay type: physicochemical
Conditions: TBME, organic solvent or mixture, thermodynamic from solid, TBME, 60 vols; read-out: Solubility assessment observation
observable: solubility

Recorded solubility (compound C1=C2COC/C=C/COCc3cc(ccc3OCCN3CCCC3)Nc3nccc(n3)C(=C1)O2 [Batch 4] ): < 16.7 mg/mL

---

Assay: Solubility assessment (solvent added in 10 volume aliquots)
Format: physicochemical
Conditions: ethyl acetate, organic solvent or mixture, thermodynamic from solid, Ethyl acetate, 100 vols; read-out: Solubility assessment observation
observable: solubility

Recorded solubility (compound C1=C2COC/C=C/COCc3cc(ccc3OCCN3CCCC3)Nc3nccc(n3)C(=C1)O2 [Batch 4] ): < 10000 µg/mL

---

Experiment: Solubility assessment (solvent added in 10 volume aliquots)
Format: physicochemical
Details: IPA, organic solvent or mixture, thermodynamic from solid, IPA, 80 vols; read-out: Solubility assessment observation
observable: solubility

Recorded solubility (compound "C1=C2COC/C=C/COCc3cc(ccc3OCCN3CCCC3)Nc3nccc(n3)C(=C1)O2" ): < 12.5 mg/mL

---

Test: Solubility assessment (solvent added in 10 volume aliquots)
Type: physicochemical
Conditions: IPA, organic solvent or mixture, thermodynamic from solid, IPA, 10 vols; read-out: Solubility assessment observation
observable: solubility

Recorded solubility (compound "C1=C2COC/C=C/COCc3cc(ccc3OCCN3CCCC3)Nc3nccc(n3)C(=C1)O2" ): < 100 mg/mL

---

Assay: Solubility assessment (solvent added in 10 volume aliquots)
Type: physicochemical
Settings: TBME, organic solvent or mixture, thermodynamic from solid, TBME, 100 vols; read-out: Solubility assessment observation
Experimental: For each solvent investigated, approximately 8 mg of compound 1 was weighed into an 8 ml screw top glass vial. The solvent was added in 10 volume aliquots and the mixture sonicated and warmed (with a hot-air gun) to encourage dissolution. If dissolution was not achieved after the addition of 100 volumes of solvent, a further 100 volumes was added.
observable: solubility

Recorded solubility (compound C1=C2COC/C=C/COCc3cc(ccc3OCCN3CCCC3)Nc3nccc(n3)C(=C1)O2 [Batch 4] ): < 10000 µg/mL

---

Test: Solubility assessment (solvent added in 10 volume aliquots)
Assay type: physicochemical
Conditions: THF, organic solvent or mixture, thermodynamic from solid, THF, 40 vols; read-out: Solubility assessment observation
observable: solubility

Recorded solubility (molecule "C1=C2COC/C=C/COCc3cc(ccc3OCCN3CCCC3)Nc3nccc(n3)C(=C1)O2" ): < 25 mg/mL

---

Test: Solubility assessment (solvent added in 10 volume aliquots)
Type: physicochemical
Settings: toluene, organic solvent or mixture, thermodynamic from solid, Toluene, 30 vols; read-out: Solubility assessment observation
observable: solubility

Recorded solubility (molecule "C1=C2COC/C=C/COCc3cc(ccc3OCCN3CCCC3)Nc3nccc(n3)C(=C1)O2" ): < 33.3 mg/mL

---

Assay: Solubility assessment (solvent added in 10 volume aliquots)
Assay type: physicochemical
Conditions: i-propyl acetate, organic solvent or mixture, thermodynamic from solid, i-propyl acetate, 100 vols; read-out: Solubility assessment observation
observable: solubility

Recorded solubility (compound C1=C2COC/C=C/COCc3cc(ccc3OCCN3CCCC3)Nc3nccc(n3)C(=C1)O2 [Batch 4] ): < 10000 µg/mL

---

Assay: Solubility assessment (solvent added in 10 volume aliquots)
Format: physicochemical
Details: i-propyl acetate, organic solvent or mixture, thermodynamic from solid, i-propyl acetate, 10 vols; read-out: Solubility assessment observation
observable: solubility

Recorded solubility (molecule C1=C2COC/C=C/COCc3cc(ccc3OCCN3CCCC3)Nc3nccc(n3)C(=C1)O2 [Batch 4] ): < 100 mg/mL

---

Test: Solubility assessment (solvent added in 10 volume aliquots)
Format: physicochemical
Settings: MEK, organic solvent or mixture, thermodynamic from solid, MEK, 10 vols; read-out: Solubility assessment observation
observable: solubility

Recorded solubility (compound "C1=C2COC/C=C/COCc3cc(ccc3OCCN3CCCC3)Nc3nccc(n3)C(=C1)O2" ): < 100 mg/mL

---

Test: Solubility assessment (solvent added in 10 volume aliquots)
Type: physicochemical
Settings: ethyl acetate, organic solvent or mixture, thermodynamic from solid, Ethyl acetate, 30 vols; read-out: Solubility assessment observation
observable: solubility

Recorded solubility (compound "C1=C2COC/C=C/COCc3cc(ccc3OCCN3CCCC3)Nc3nccc(n3)C(=C1)O2" ): < 33.3 mg/mL

---

Assay: Solubility assessment (solvent added in 10 volume aliquots)
Assay type: physicochemical
Details: acetonitrile, organic solvent or mixture, thermodynamic from solid, Acetonitrile, 80 vols; read-out: Solubility assessment observation
Method: For each solvent investigated, approximately 8 mg of compound 1 was weighed into an 8 ml screw top glass vial. The solvent was added in 10 volume aliquots and the mixture sonicated and warmed (with a hot-air gun) to encourage dissolution. If dissolution was not achieved after the addition of 100 volumes of solvent, a further 100 volumes was added.
observable: solubility

Recorded solubility (molecule "C1=C2COC/C=C/COCc3cc(ccc3OCCN3CCCC3)Nc3nccc(n3)C(=C1)O2" ): < 12.5 mg/mL

---

Assay: Solubility assessment (solvent added in 10 volume aliquots)
Type: physicochemical
Details: ethyl acetate, organic solvent or mixture, thermodynamic from solid, Ethyl acetate, 80 vols; read-out: Solubility assessment observation
observable: solubility

Recorded solubility (compound C1=C2COC/C=C/COCc3cc(ccc3OCCN3CCCC3)Nc3nccc(n3)C(=C1)O2 [Batch 4] ): < 12.5 mg/mL

---

Test: Solubility assessment (solvent added in 10 volume aliquots)
Format: physicochemical
Settings: THF, organic solvent or mixture, thermodynamic from solid, THF, 30 vols; read-out: Solubility assessment observation
observable: solubility

Recorded solubility (molecule C1=C2COC/C=C/COCc3cc(ccc3OCCN3CCCC3)Nc3nccc(n3)C(=C1)O2 [Batch 5] ): < 33.3 mg/mL

---

Assay: Solubility assessment (solvent added in 10 volume aliquots)
Format: physicochemical
Conditions: TBME, organic solvent or mixture, thermodynamic from solid, TBME, 90 vols; read-out: Solubility assessment observation
Experimental: For each solvent investigated, approximately 8 mg of compound 1 was weighed into an 8 ml screw top glass vial. The solvent was added in 10 volume aliquots and the mixture sonicated and warmed (with a hot-air gun) to encourage dissolution. If dissolution was not achieved after the addition of 100 volumes of solvent, a further 100 volumes was added.
observable: solubility

Recorded solubility (compound "C1=C2COC/C=C/COCc3cc(ccc3OCCN3CCCC3)Nc3nccc(n3)C(=C1)O2" ): < 11.1 mg/mL

---

Assay: Solubility assessment (solvent added in 10 volume aliquots)
Assay type: physicochemical
Settings: ethyl acetate, organic solvent or mixture, thermodynamic from solid, Ethyl acetate, 40 vols; read-out: Solubility assessment observation
observable: solubility

Recorded solubility (compound C1=C2COC/C=C/COCc3cc(ccc3OCCN3CCCC3)Nc3nccc(n3)C(=C1)O2 [Batch 4] ): < 25 mg/mL

---

Experiment: Solubility assessment (solvent added in 10 volume aliquots)
Format: physicochemical
Details: THF, organic solvent or mixture, thermodynamic from solid, THF, 80 vols; read-out: Solubility assessment observation
observable: solubility

Recorded solubility (compound "C1=C2COC/C=C/COCc3cc(ccc3OCCN3CCCC3)Nc3nccc(n3)C(=C1)O2" ): < 12.5 mg/mL

---

Test: Solubility assessment (solvent added in 10 volume aliquots)
Assay type: physicochemical
Settings: ethanol, organic solvent or mixture, thermodynamic from solid, Ethanol, 80 vols; read-out: Solubility assessment observation
observable: solubility

Recorded solubility (compound C1=C2COC/C=C/COCc3cc(ccc3OCCN3CCCC3)Nc3nccc(n3)C(=C1)O2 [Batch 5] ): < 12.5 mg/mL

---

Assay: Solubility assessment (solvent added in 10 volume aliquots)
Format: physicochemical
Conditions: ethyl acetate, organic solvent or mixture, thermodynamic from solid, Ethyl acetate, 200 vols; read-out: Solubility assessment observation
observable: solubility

Recorded solubility (compound C1=C2COC/C=C/COCc3cc(ccc3OCCN3CCCC3)Nc3nccc(n3)C(=C1)O2 [Batch 4] ): < 5000 µg/mL

---

Assay: Solubility assessment (solvent added in 10 volume aliquots)
Assay type: physicochemical
Conditions: acetone, organic solvent or mixture, thermodynamic from solid, Acetone, 200 vols; read-out: Solubility assessment observation
observable: solubility

Recorded solubility (compound "C1=C2COC/C=C/COCc3cc(ccc3OCCN3CCCC3)Nc3nccc(n3)C(=C1)O2" ): < 5000 µg/mL

---

Assay: Solubility assessment (solvent added in 10 volume aliquots)
Assay type: physicochemical
Conditions: i-propyl acetate, organic solvent or mixture, thermodynamic from solid, i-propyl acetate, 60 vols; read-out: Solubility assessment observation
observable: solubility

Recorded solubility (compound "C1=C2COC/C=C/COCc3cc(ccc3OCCN3CCCC3)Nc3nccc(n3)C(=C1)O2" ): < 16.7 mg/mL

---

Assay: Solubility assessment (solvent added in 10 volume aliquots)
Assay type: physicochemical
Conditions: TBME, organic solvent or mixture, thermodynamic from solid, TBME, 50 vols; read-out: Solubility assessment observation
observable: solubility

Recorded solubility (compound C1=C2COC/C=C/COCc3cc(ccc3OCCN3CCCC3)Nc3nccc(n3)C(=C1)O2 [Batch 4] ): < 20 mg/mL
